assay: Phase 1 single ascending dose study of grapiprant OPC: pharmacokinetics; assay type: in vivo, human; conditions: human, serum, oral, 2000 mg, single 2000 mg dose as OPC, fasted, healthy adults, mean; read-out: T½ (converted)
Readout type: half-life (h)
Answers are plain numbers, in h.

Endpoint output: half-life of `CCc1nc2c(C)nc(C)cc2n1-c1ccc(CCNC(=O)NS(=O)(=O)c2ccc(C)cc2)cc1` . Value?
8.25

---

test: Phase 1 multiple ascending dose study of grapiprant tablets: urine pharmacokinetics; format: in vivo, human; settings: human, urine and serum; 300 mg BID (n = 9), after 14 days of multiple oral dosing, healthy adults, mean (SD)
Readout type: CL renal (mL/min)
Give bare numbers, in mL/min.

Endpoint output: CL renal of `CCc1nc2c(C)nc(C)cc2n1-c1ccc(CCNC(=O)NS(=O)(=O)c2ccc(C)cc2)cc1` . Value?
44.5

---

test: Phase 1 multiple ascending dose study of grapiprant tablets: serum pharmacokinetics; format: in vivo, human; settings: human, serum, oral, 300 mg, 300 mg BID tablets, Day 14, healthy adults, serum, mean
Readout type: AUC(0-t) (ng·h/mL)
Answers are plain numbers, in ng·h/mL.

Endpoint output: AUC(0-t) of CCc1nc2c(C)nc(C)cc2n1-c1ccc(CCNC(=O)NS(=O)(=O)c2ccc(C)cc2)cc1 [Grapiprant] . Value?
32300

---

assay: Phase 1 single ascending dose study of grapiprant OPC: pharmacokinetics; type: in vivo, human; conditions: human, oral; single 600 mg dose as OPC, fasted, healthy adults, serum, mean
Readout type: Cmax (ng/mL)
One number for each entry, in ng/mL.

Endpoint output: Cmax of `CCc1nc2c(C)nc(C)cc2n1-c1ccc(CCNC(=O)NS(=O)(=O)c2ccc(C)cc2)cc1` . Value?
45000

---

Assay: Phase 1 crossover food effect study of 375 mg grapiprant tablets: pharmacokinetics
Type: in vivo, human
Conditions: human, serum, po, 375 mg, 375 mg tablet-fed (high-fat meal), single oral dose, healthy subjects (N = 12), arithmetic mean
From the text: This study was a randomized, open-label, single dose, 2-period crossover design. Each subject participated in 2 study periods. […] Log-transformed AUC(0-inf), AUC(0-tlast) and Cmax were each analyzed using a mixed effects model containing sequence, treatment (fed and fasted), and period as the fixed effects and subject (within sequence) as the random effect. […]
Readout type: AUC(0-inf)

Endpoint output: AUC(0-inf) of `CCc1nc2c(C)nc(C)cc2n1-c1ccc(CCNC(=O)NS(=O)(=O)c2ccc(C)cc2)cc1` . Value?
24800 ng·h/mL

---

test: Phase 1 single ascending dose study of grapiprant OPC: pharmacokinetics; type: in vivo, human; details: human, oral; single 600 mg dose as OPC, fasted, healthy adults, serum, mean
Readout type: AUC(0-inf) (ng·h/mL)
One number for each entry, in ng·h/mL.

Endpoint output: AUC(0-inf) of `CCc1nc2c(C)nc(C)cc2n1-c1ccc(CCNC(=O)NS(=O)(=O)c2ccc(C)cc2)cc1` . Value?
92500

---

experiment: Phase 1 crossover food effect study of 375 mg grapiprant tablets: pharmacokinetics; format: in vivo, human; settings: human, serum, po, 375 mg, 375 mg tablet-fed (high-fat meal), single oral dose, healthy subjects (N = 12), median
Readout type: Tmax

Endpoint output: Tmax of CCc1nc2c(C)nc(C)cc2n1-c1ccc(CCNC(=O)NS(=O)(=O)c2ccc(C)cc2)cc1 [Grapiprant] . Value?
4 h

---

assay: Phase 1 single ascending dose study of grapiprant OPC: pharmacokinetics; assay type: in vivo, human; settings: human, serum, oral, 1500 mg, single 1500 mg dose as OPC, fasted, healthy adults, mean; read-out: T½ (converted)
Readout type: half-life (h)
Answers are plain numbers, in h.

Endpoint output: half-life of `CCc1nc2c(C)nc(C)cc2n1-c1ccc(CCNC(=O)NS(=O)(=O)c2ccc(C)cc2)cc1` . Value?
8.13

---

Test: Phase 1 multiple ascending dose study of grapiprant tablets: serum pharmacokinetics
Format: in vivo, human
Conditions: human, serum, oral, 50 mg, 50 mg BID tablets, Day 1, healthy adults, serum, median
Excerpt: Serum pharmacokinetic parameters can be computed using WinNonlin Version 3.2 (Pharsight®, Mountain View, Calif.) using standard non-compartmental methods. […] As used herein, the term “AUC(0-tlast)” refers to the area under the serum concentration vs. time curve from time 0 to Tlast (the time of the last quantifiable concentration estimated using the linear/log trapezoidal approximation). […] As used herein, the term “t½” refers to terminal phase half-life calculated as ln(2)/kel. […]
Readout type: Tmax (h)
Answers are plain numbers, in h.

Endpoint output: Tmax of `CCc1nc2c(C)nc(C)cc2n1-c1ccc(CCNC(=O)NS(=O)(=O)c2ccc(C)cc2)cc1` . Value?
1.5

---

assay: Phase 1 crossover food effect study of 375 mg grapiprant tablets: pharmacokinetics; assay type: in vivo, human; settings: human, serum, po, 375 mg, 375 mg tablet-fed (high-fat meal), single oral dose, healthy subjects (N = 12), arithmetic mean; read-out: t½ (converted)
Readout type: half-life (h)
Give bare numbers, in h.

Endpoint output: half-life of `CCc1nc2c(C)nc(C)cc2n1-c1ccc(CCNC(=O)NS(=O)(=O)c2ccc(C)cc2)cc1` . Value?
8.52

---

assay: Phase 1 single ascending dose study of grapiprant OPC: pharmacokinetics; format: in vivo, human; conditions: human, oral; single 10 mg dose as OPC, fasted, healthy adults, serum, mean
Readout type: Cmax (ng/mL)
Numbers only, in ng/mL.

Endpoint output: Cmax of `CCc1nc2c(C)nc(C)cc2n1-c1ccc(CCNC(=O)NS(=O)(=O)c2ccc(C)cc2)cc1` . Value?
110

---

experiment: Phase 1 single ascending dose study of grapiprant OPC: pharmacokinetics; format: in vivo, human; conditions: human, serum, oral, 300 mg, single 300 mg dose as OPC, fasted, healthy adults, mean; read-out: T½ (converted)
Readout type: half-life (h)
Give bare numbers, in h.

Endpoint output: half-life of CCc1nc2c(C)nc(C)cc2n1-c1ccc(CCNC(=O)NS(=O)(=O)c2ccc(C)cc2)cc1 [Grapiprant] . Value?
7.98

---

experiment: Phase 1 single ascending dose study of grapiprant OPC: pharmacokinetics; assay type: in vivo, human; conditions: human, oral; single 2000 mg dose as OPC, fasted, healthy adults, serum, mean
Readout type: AUC(0-t)

Endpoint output: AUC(0-t) of `CCc1nc2c(C)nc(C)cc2n1-c1ccc(CCNC(=O)NS(=O)(=O)c2ccc(C)cc2)cc1` . Value?
478 µg·h/mL

---

assay: Phase 1 single ascending dose study of grapiprant OPC: pharmacokinetics; assay type: in vivo, human; conditions: human, serum, oral, across the dose groups, 1 mg to 2000 mg OPC, fasted; read-out: median Tmax estimates
Readout type: Tmax

Endpoint output: Tmax of `CCc1nc2c(C)nc(C)cc2n1-c1ccc(CCNC(=O)NS(=O)(=O)c2ccc(C)cc2)cc1` . Value?
0.5 to 3 h

---

assay: Phase 1 single ascending dose study of grapiprant OPC: pharmacokinetics; format: in vivo, human; settings: human, serum, oral, 30 mg, single 30 mg dose as OPC, fasted, healthy adults, mean; read-out: T½ (converted)
Readout type: half-life (h)
One number for each entry, in h.

Endpoint output: half-life of `CCc1nc2c(C)nc(C)cc2n1-c1ccc(CCNC(=O)NS(=O)(=O)c2ccc(C)cc2)cc1` . Value?
6.14

---

experiment: Phase 1 multiple ascending dose study of grapiprant tablets: urine pharmacokinetics; assay type: in vivo, human; conditions: human, urine and serum; 50 mg BID (n = 8), after 14 days of multiple oral dosing, healthy adults, mean (SD)
Readout type: CL renal (mL/min)
Give bare numbers, in mL/min.

Endpoint output: CL renal of CCc1nc2c(C)nc(C)cc2n1-c1ccc(CCNC(=O)NS(=O)(=O)c2ccc(C)cc2)cc1 [Grapiprant] . Value?
56.3

---

experiment: Phase 1 single ascending dose study of grapiprant OPC: pharmacokinetics; format: in vivo, human; details: human, oral; single 300 mg dose as OPC, fasted, healthy adults, serum, mean
Readout type: Cmax (ng/mL)
One number for each entry, in ng/mL.

Endpoint output: Cmax of `CCc1nc2c(C)nc(C)cc2n1-c1ccc(CCNC(=O)NS(=O)(=O)c2ccc(C)cc2)cc1` . Value?
12000

---

assay: Phase 1 multiple ascending dose study of grapiprant tablets: serum pharmacokinetics; type: in vivo, human; conditions: human, serum, oral, 250 mg, 250 mg BID tablets, Day 17, elderly with mild renal impairment, serum, mean
Readout type: AUC(0-t) (ng·h/mL)
Numbers only, in ng·h/mL.

Endpoint output: AUC(0-t) of CCc1nc2c(C)nc(C)cc2n1-c1ccc(CCNC(=O)NS(=O)(=O)c2ccc(C)cc2)cc1 [Grapiprant] . Value?
40200

---

assay: Phase 1 single ascending dose study of grapiprant OPC: pharmacokinetics; assay type: in vivo, human; conditions: human, oral; single 300 mg dose as OPC, fasted, healthy adults, serum, mean
Readout type: AUC(0-inf)
Express your answer as a number followed by its unit.

Endpoint output: AUC(0-inf) of CCc1nc2c(C)nc(C)cc2n1-c1ccc(CCNC(=O)NS(=O)(=O)c2ccc(C)cc2)cc1 [Grapiprant] . Value?
31300 ng·h/mL
